Each entry below carries its reported IC50.
TARGET_DESC: HCV NS5B polymerase (NS5BΔCT21, from HCV-Con 1 isolate, genotype 1b) (Hepatitis C virus genotype 1b, UniProt Q9WMX2)
Construct: A soluble C-terminal 21-amino acid truncated NS5B enzyme form; polyhistidine (C); made in house; host or cells: Escherichia coli
TEST: HCV NS5B Polymerase Inhibition Assay
Assay type: biochemical
EXPERIMENTAL_CONDITIONS: NS5B polymerase inhibition, [33P]-CTP incorporation, 22° C. for 2 hours; read-out: IC50

INSERT INTO measurements (chemical_smiles, measured_result) VALUES
  ('CC(C)S(=O)(=O)NC(=O)c1c(-c2ccc[nH]c2=O)c2c3occc3c(F)cc2n1Cc1ccccc1F', '< 25 nM');

Req: Need IC50 of O=C(O)c1c(-c2ccc[nH]c2=O)c2c3ncsc3ccc2n1Cc1ccc(F)cc1F , thanks.
Resp: < 25 nM

Req: Also need CC(C)S(=O)(=O)NC(=O)c1c(-c2ccc[nH]c2=O)c2c3c(c(F)cc2n1Cc1cc2ccccc2nc1Cl)CCO3 , thanks.
Resp: < 25 nM

Req: Also need O=C(O)c1c(-c2ccc[nH]c2=O)c2c3occc3c(F)cc2n1Cc1ccc2[nH]c(=O)[nH]c2c1 , thanks.
Resp: < 25 nM

Req: Also need CCc1coc2c1ccc1c2c(-c2ccc[nH]c2=O)c(C(=O)O)n1Cc1ccccc1F , thanks.
Resp: > 100 nM

Req: Also need O=C(O)c1c(-c2ccc[nH]c2=O)c2c3occc3ccc2n1Cc1ccccc1F , thanks.
Resp: < 25 nM

Req: Also need O=C(O)c1c(-c2ccc[nH]c2=O)c2c3occ(Cl)c3ccc2n1Cc1cc(F)ccc1F , thanks.
Resp: < 25 nM

Req: Also need NC(=O)c1ncc(Cn2c(C(=O)O)c(-c3ccc[nH]c3=O)c3c4occc4c(F)cc32)s1 , thanks.
Resp: 25 to 100 nM

Req: Also need CC(C)(C)C(=O)OCn1cccc(-c2c(C(=O)O)n(Cc3cc4ccccc4nc3Cl)c3cc(F)c4ccoc4c23)c1=O , thanks.
Resp: > 100 nM

Req: Also need CS(=O)(=O)NC(=O)c1c(-c2ccc[nH]c2=O)c2c3occc3ccc2n1Cc1cc2ccccc2nc1Cl , thanks.
Resp: < 25 nM

Req: Also need Cc1nn(C)c2nc(Cl)c(Cn3c(C(=O)O)c(-c4ccc[nH]c4=O)c4c5occc5c(F)cc43)cc12 , thanks.
Resp: < 25 nM

Req: Also need COc1cc(Cn2c(C(=O)OCOC(=O)C(C)(C)C)c(-c3cccn(COC(=O)C(C)(C)C)c3=O)c3c4occc4c(F)cc32)c(F)cn1 , thanks.
Resp: > 100 nM

Req: Also need CS(=O)(=O)NC(=O)c1c(-c2ccc[nH]c2=O)c2c3occc3ccc2n1Cc1ccccc1Cl , thanks.
Resp: < 25 nM

Req: Also need Cc1ccccc1Cn1c(C(=O)O)c(-c2ccc[nH]c2=O)c2c3occc3ccc21 , thanks.
Resp: < 25 nM

----------
Each entry below carries its reported IC50.
TARGET_DESC: HCV NS5B polymerase (NS5BΔCT21, from HCV-Con 1 isolate, genotype 1b) (Hepatitis C virus genotype 1b, UniProt Q9WMX2)
Construct: A soluble C-terminal 21-amino acid truncated NS5B enzyme form; polyhistidine (C); made in house; host or cells: Escherichia coli
TEST: HCV NS5B Polymerase Inhibition Assay
Type: biochemical
EXPERIMENTAL_CONDITIONS: NS5B polymerase inhibition, [33P]-CTP incorporation, 22° C. for 2 hours; read-out: IC50

Example results:
INSERT INTO measurements (compound, measured_result) VALUES
  ('O=C(NS(=O)(=O)C1CC1)c1c(-c2ccc[nH]c2=O)c2c3occc3cc(F)c2n1Cc1cc(F)ccc1F [Compound 178]', '< 25 nM'),
  ('CN(C)S(=O)(=O)NC(=O)c1c(-c2ccc[nH]c2=O)c2c3occc3ccc2n1Cc1cc2ccccc2nc1Cl [Compound 204]', '< 25 nM');

Req: Need IC50 of Cc1c[nH]c(=O)cc1Cn1c(C(=O)O)c(-c2ccc[nH]c2=O)c2c3occc3c(F)cc21 [Compound 83] , thanks.
Resp: < 25 nM

Req: Also need O=C(O)c1c(-c2ccc[nH]c2=O)c2c3occc3c(F)cc2n1Cc1cc([N+](=O)[O-])ccc1F [Compound 111] , thanks.
Resp: < 25 nM

Req: Also need CS(=O)(=O)Nc1cccc(S(=O)(=O)NC(=O)c2c(-c3ccc[nH]c3=O)c3c4ccoc4ccc3n2Cc2ccc(F)cc2F)c1 [Compound 11] , thanks.
Resp: 25 to 100 nM

Req: Also need O=C(O)c1c(-c2ccc[nH]c2=O)c2c3ccoc3ccc2n1Cc1cc(F)ccc1F [Compound 40] , thanks.
Resp: 25 to 100 nM

----------
TARGET_DESC: HCV NS5B polymerase (NS5BΔCT21, from HCV-Con 1 isolate, genotype 1b) (Hepatitis C virus genotype 1b, UniProt Q9WMX2)
Construct: A soluble C-terminal 21-amino acid truncated NS5B enzyme form; polyhistidine (C); made in house; host or cells: Escherichia coli
TEST: HCV NS5B Polymerase Inhibition Assay
Type: biochemical
EXPERIMENTAL_CONDITIONS: NS5B polymerase inhibition, [33P]-CTP incorporation, 22° C. for 2 hours; read-out: IC50
RECORDED_METRIC: IC50

INSERT INTO assay_data (chemical_smiles, recorded_metric, measured_result) VALUES
  ('CC(C)n1ncc2cc(Cn3c(C(=O)O)c(-c4ccc[nH]c4=O)c4c5occc5c(F)cc43)c(Cl)nc21', 'IC50', '< 25 nM');

Let us move to another entry and its IC50.
Req: Need IC50 of CS(=O)(=O)NC(=O)c1c(-c2ccc[nH]c2=O)c2c3ncsc3ccc2n1Cc1ccccc1F , thanks.
Resp: < 25 nM

----------
TARGET_DESC: HCV NS5B polymerase (NS5BΔCT21, from HCV-Con 1 isolate, genotype 1b) (Hepatitis C virus genotype 1b, UniProt Q9WMX2)
Construct: A soluble C-terminal 21-amino acid truncated NS5B enzyme form; polyhistidine (C); made in house; host or cells: Escherichia coli
TEST: HCV NS5B Polymerase Inhibition Assay
Format: biochemical
EXPERIMENTAL_CONDITIONS: NS5B polymerase inhibition, [33P]-CTP incorporation, 22° C. for 2 hours; read-out: IC50
Each entry below carries its reported IC50.

Req: Need IC50 of CS(=O)(=O)NC(=O)c1c(-c2ccc[nH]c2=O)c2c3occc3ccc2n1Cc1cc(C(N)=O)ccc1F , thanks.
Resp: < 0.025 µM

Req: Also need O=C(O)c1c(-c2ccc[nH]c2=O)c2c3scnc3ccc2n1Cc1ccc(F)cc1F , thanks.
Resp: > 0.1 µM

Req: Also need Nc1nc2cc(Cn3c(C(=O)O)c(-c4ccc[nH]c4=O)c4c5occc5c(F)cc43)ccc2[nH]1 , thanks.
Resp: < 0.025 µM

----------
TARGET_DESC: HCV NS5B polymerase (NS5BΔCT21, from HCV-Con 1 isolate, genotype 1b) (Hepatitis C virus genotype 1b, UniProt Q9WMX2)
Construct: A soluble C-terminal 21-amino acid truncated NS5B enzyme form; polyhistidine (C); made in house; host or cells: Escherichia coli
TEST: HCV NS5B Polymerase Inhibition Assay
Type: biochemical
EXPERIMENTAL_CONDITIONS: NS5B polymerase inhibition, [33P]-CTP incorporation, 22° C. for 2 hours; read-out: IC50
Each entry below carries its reported IC50.

Example results:
INSERT INTO measurements (chemical_smiles, measured_result) VALUES
  ('Cc1ccc(Cn2c(C(=O)NS(=O)(=O)C3CC3)c(-c3ccc[nH]c3=O)c3c4occc4ccc32)c(C)c1', '< 25 nM'),
  ('CS(=O)(=O)NC(=O)c1c(-c2ccc[nH]c2=O)c2c3c(c(F)cc2n1Cc1csc(C(N)=O)c1)CCO3', '< 25 nM'),
  ('O=C(NS(=O)(=O)C1CC1)c1c(-c2ccc[nH]c2=O)c2c3occc3ccc2n1Cc1cc(F)ccc1F', '< 25 nM'),
  ('O=C(O)c1c(-c2ccc[nH]c2=O)c2c3occc3c(F)cc2n1Cc1nc(Br)ccc1F', '< 25 nM');

Req: Need IC50 of NC(=O)c1cc(Cn2c(C(=O)O)c(-c3ccc[nH]c3=O)c3c4c(c(F)cc32)CCO4)cs1 , thanks.
Resp: < 25 nM

Req: Also need CCc1coc2c1ccc1c2c(-c2ccc[nH]c2=O)c(C(=O)NS(C)(=O)=O)n1Cc1ccccc1F , thanks.
Resp: > 100 nM

Req: Also need O=C(O)c1c(-c2ccc[nH]c2=O)c2c3occc3c(F)cc2n1Cc1cc2nc[nH]c2cc1F , thanks.
Resp: < 25 nM

Req: Also need O=C(NS(=O)(=O)C1CC1)c1ccc(F)c(Cn2c(C(=O)NS(=O)(=O)C3CC3)c(-c3ccc[nH]c3=O)c3c4occc4c(F)cc32)c1 , thanks.
Resp: < 25 nM

Req: Also need CN(C)S(=O)(=O)NC(=O)c1c(-c2ccc[nH]c2=O)c2c3occc3c(F)cc2n1Cc1cc2ccccc2nc1Cl , thanks.
Resp: < 25 nM

Req: Also need CS(=O)(=O)NC(=O)c1c(-c2ccc[nH]c2=O)c2c3occc3c(F)cc2n1Cc1cc(C(N)=O)ccc1F , thanks.
Resp: < 25 nM

Req: Also need O=C(NS(=O)(=O)C1CC1)c1c(-c2ccc[nH]c2=O)c2c3occc3c(F)cc2n1Cc1cc([N+](=O)[O-])ccc1F , thanks.
Resp: < 25 nM

Req: Also need COc1ccc(S(=O)(=O)NC(=O)c2c(-c3ccc[nH]c3=O)c3c4ccoc4ccc3n2Cc2ccc(F)cc2F)cc1 , thanks.
Resp: 25 to 100 nM

Req: Also need O=C(O)c1c(-c2ccc[nH]c2=O)c2c3occc3c(F)cc2n1Cc1cc(F)ccc1F , thanks.
Resp: < 25 nM
